- Tested on: NCI-H522 lung
- assay: NCI-60 one-dose screen, 48 h (100 = growth as untreated, 0 = no growth, -100 = all killed)
- condition details: 10 µM unless noted
About 83,000 compounds went through this panel and 20% of them were active in at least one assay; those are over-represented in the sample as a whole.
# if measured growth < 80%: Condition met  # else: Condition not met

Solved entries:
> print(dat)
                                   compound    measured.on       answer.label
1        CCOC(=O)CC(C#N)(CC(=O)OCC)C(=O)OCC  NCI-H522 lung  Condition not met
2  O=C1NCC(c2cc3ccccc3[nH]c2=O)Nc2ccccc21 (stereo not given)  NCI-H522 lung  Condition not met
3  C=C1C(=O)O[C@H]2[C@H]1CC/C(Cn1cc(-c3ccc(N)cc3)nn1)=C\CC[C@@]1(C)O[C@@H]21  NCI-H522 lung      Condition met
4        Cc1nc2sccn2c1-c1csc(Nc2ccccc2Cl)n1  NCI-H522 lung      Condition met
5  CCN1C(=S)N(CC)C2Nn3c(s/c(=C4\C(=O)N(C)c5ccccc54)c3=O)=NC21 (stereo not given)  NCI-H522 lung      Condition met
6  O=C1C2=C(C(=O)c3c(O)ccc(O)c31)N(c1cccnc1)Cc1ccccc1O2  NCI-H522 lung      Condition met
7  COc1ccc(C2CC(c3cccs3)=NN2c2ccc(S(=O)(=O)NC(=O)NCc3cccc(OC)c3)cc2)cc1 (stereo not given)  NCI-H522 lung  Condition not met
8  COC(=O)C(CC(=O)c1ccc(-c2ccccc2)cc1)c1ccccc1 (stereo not given)  NCI-H522 lung      Condition met

Threshold test, growth < 80%: C=C1C(=O)O[C@H]2[C@H]1CC/C(COC(=O)NCc1cc(OC)c(OC)c(OC)c1)=C\CC[C@@]1(C)O[C@@H]21
Condition met

Threshold test, growth < 80%: O=C(/C=C/CN1CCOCC1)Nc1cc2c(Nc3ccc(F)c(Cl)c3F)ncnc2cc1OCCOC(F)F
Condition met

Threshold test, growth < 80%: COc1cc2c3c(c(=O)oc2cc1OS(=O)(=O)c1ccc(C(F)(F)F)cc1)CCCCC3
Condition met

Threshold test, growth < 80%: Nc1nc(Cl)c2c(ncn2Cc2ccc(CCl)cc2)n1
Condition met

Threshold test, growth < 80%: COc1ccc(/C=C/C(=O)OCC(=O)NNC(=O)c2ccccc2)cc1OC
Condition not met

###

- System: A498 renal
- assay: NCI-60 one-dose screen, 48 h (100 = growth as untreated, 0 = no growth, -100 = all killed)
- condition details: 10 µM unless noted
The panel holds about 83,000 compounds, 20% with a hit somewhere; the sample as a whole holds those more often.
property measured: growth (%)
Give bare numbers, in %.

molecule	measured on	uom	observed value
CS(=O)(=O)N(c1cc(-c2ccc3ncnc(Nc4cccc(Cl)c4)c3c2)cnc1Cl)S(C)(=O)=O	A498 renal	%	-28

Batch request: growth per item, same order as input.
1. c1ccc2c(c1)Oc1ccccc1C2C1c2ccccc2Oc2ccccc21
2. CN(C)C/C=C/C(=O)Nc1cc2c(Nc3ccc(F)c(Cl)c3F)ncnc2cc1OCCOC(F)F

1: 91.8; 2: -47.7

Batch request: growth per item, same order as input.
1. COc1cc(Br)c(OC)cc1Br
2. COc1ccc(C(=O)/C=C/c2cc(C(=O)c3cc(OC)c(OC)c(OC)c3)ccc2OC)cc1
3. CC1=C(C#N)C(C)(C)C(C#N)=C(C)N1
4. O=C1Nc2cc(Cl)ccc2/C1=C/c1ccc(N2CCOCC2)s1
5. O=S(=O)(NCCNc1cc(-c2cn(-c3ccccc3)nc2-c2ccccc2)ccn1)c1cccc2ccccc12
6. Cc1oc2nc[nH]c(=O)c2c1C(=O)/C=C/c1ccc(Cl)cc1Cl

88.7
93.1
88.6
87.1
72.5
94.3

Batch request: growth per item, same order as input.
1. Cc1ccccc1C(=O)c1ccccc1C(=O)O
2. Cn1c(C(N)=O)cc2c1-c1nc(NC3CCCCC3)ncc1CCC2
3. Clc1nc(Cl)c2ncn(C/C=C/Cn3cnc4c(Cl)nc(Cl)nc43)c2n1
4. C/C(=C\c1csc(C)n1)[C@@H]1C[C@@H]2O[C@]2(C)CCC[C@H](C)[C@H](O)[C@@H](C)C(=O)C(C)(C)[C@@H](O)CC(=O)N1

1. 126
2. 46
3. 90.2
4. -28.7

Batch request: growth per item, same order as input.
1. CC(C)(C)OC(=O)N[C@@H](Cc1ccccc1)C(=O)N(Cc1ccccc1)C1(C(=O)NCc2ccccc2)CCN(Cc2ccccc2)CC1
2. CNC(C)=O
3. COc1ccc(-c2nnc(COc3ccc(NS(=O)(=O)c4ccc(OC)cc4)cc3F)o2)cc1
4. Cn1c(=O)c2c(nc3n2CCN(CCc2ccc(OCCN4CCOCC4)cc2)C3)n(C)c1=O
5. C=CCOc1ccc(/C(O)=C2\C(=O)C(=O)N(c3nccs3)C2c2ccccc2F)cc1 (stereo unspecified)
6. COc1ccc(/C=C/C(=O)OCC(=O)NNC(=O)c2ccccc2)cc1OC
7. Nc1c(C(=O)Nc2cccc(C(F)(F)F)c2)sc2nc3c(cc12)C(O)CCC3 (stereo unspecified)

1: 8.13; 2: 104; 3: 59.2; 4: 81.3; 5: 73.8; 6: 93; 7: -2.02

Batch request: growth per item, same order as input.
1. COc1cc(NCCCN=C(N)NC(N)=NC(C)C)c2ncccc2c1
2. CCOc1ccc(/C=C/C=N/NC(N)=S)cc1
3. O=C1CCC(=O)N1Cc1ccccc1
4. CCc1cccc(C)c1NC(=O)c1sc2nc3c(cc2c1N)C(=O)CCC3
5. COc1ccc(/C=N/NC(=O)Cn2c(Cc3cccc4ccccc34)nc3ccccc32)cc1
6. CC/C=C\C[C@H]1C/C=C2/C(=O)C(Cl)=C[C@@H]2C/C=C\CCCC(=O)O1
7. C#CCC1(c2ccc(F)c(F)c2)NS(=O)(=O)c2ccccc21 (stereo unspecified)

1. 120
2. 77.7
3. 85.8
4. -9.18
5. 85.5
6. -68.3
7. 109

Batch request: growth per item, same order as input.
1. Nc1nc(-c2cc3ccccc3o2)cc(=O)c(=O)[nH]1
2. CCNC(=O)C1CCCN1C(=O)C(CCCN=C(N)N)NC(=O)C(CC(C)C)NC(=O)C(CC(C)C)NC(=O)C(Cc1ccc(O)cc1)NC(=O)C(CO)NC(=O)C(Cc1c[nH]c2ccccc12)NC(=O)C(Cc1cnc[nH]1)NC(=O)C1CCC(=O)N1 (stereo unspecified)
3. Clc1nc2ccccc2nc1CI
4. COc1cc(C2C=C(C)N=C3SC=CN32)cc(OC)c1OC (stereo unspecified)

99.2
98
120
106

Batch request: growth per item, same order as input.
1. Cc1cc2c(C(C)C)c(O)c(O)c(C=NCCCCCCC(=O)O)c2c(O)c1-c1c(C)cc2c(C(C)C)c(O)c(O)c(C=NCCCCCCC(=O)O)c2c1O
2. CCN(CC)CCC(=O)c1cccc2ccccc12
3. CCCCCCCCCN1C(=O)/C(=c2\sc3n(c2=O)C2C(NN=3)N(CC)C(=O)N2CC)c2ccccc21 (stereo unspecified)
4. COc1ccc(Cn2cc(COc3cc(/C=C/C(=O)c4cc(OC)c(OC)c(OC)c4)ccc3OC)nn2)cc1
5. CCC(C)NCC(=O)O (stereo unspecified)
6. COc1ccc(/C(=N\O)c2cc(OC)c(OC)c(OC)c2)c(OC)c1N

1. 36.6
2. 101
3. 18.8
4. 81.4
5. 107
6. -19.3

Batch request: growth per item, same order as input.
1. COc1ccc(OC)c(NC(=O)c2cc(S(=O)(=O)N3CCc4ccccc43)ccc2OC)c1
2. O=C(O)c1ccc(-n2cc(CNc3ccc(C(F)(F)F)cc3)c(-c3ccccc3)n2)cc1
3. COc1ncc(-c2ccc3ncnc(Nc4cccc(Cl)c4)c3c2)cc1NS(=O)(=O)C1CC1

1. 69.8
2. 87.6
3. 15.7

Lab note: measured growth of C=C1C(=O)O[C@H]2[C@H]1CC/C(COC(=O)NCc1cc(OC)c(OC)c(OC)c1)=C\CC[C@@]1(C)O[C@@H]21 was 109

Hello, the source for this data is PubChem BioAssay (NCI), in case you need it.
